Source listed as PubChem BioAssay (NCATS).

# PROTOCOL DESCRIPTION: Stat Signaling Pathway (AID 446);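 also: ME-180 cervical cancer cells given 40 pM IL-6 alongside compound; SIE-controlled beta-lactamase reporter measured as 460/530 nm FRET emission ratio; % is scaled to controls: 0 for no effect and ±100 for the full control effect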
# COND: ME-180 SIE beta-lactamase reporter, IL-6 stimulated, 5 h; at 7.69 µM (top of the series) unless noted
Inconclusive results are not listed. Activity calls are given as the source filed them. Calls follow the shape of the dose curve; as a rule, active = well fitted curve in either direction with a large enough effect (not every such curve was filed as active); inconclusive = small, poorly fitted or top-dose-only effect, or another doubt; inactive = flat fitted curve, though single readings scatter.
// allowed return values: active, inactive

These solved cases illustrate the format of a correct answer.
COMPOUND	CATEGORY
COc1ccc2c(c1OC)C(=O)OC2C1c2c(cc3c(c2OC)OCO3)CCN1C (centres undefined)	inactive
COCC(=O)N1CCC2(CC1)CN(c1ccccc1)C2	inactive
COCC(=O)N1CCC2(CCN(Cc3ccccc3)CC2)CC1	inactive
O=C(c1cccc(F)c1)N1CCC2(CCN(Cc3ccncc3)CC2)CC1	inactive
Cc1[nH]ccc2c1[nH]c1cc(=O)ccc12	inactive
COc1cccc(-c2nc(NCc3ccc(OC)cc3OC)c3ccccc3n2)c1	inactive
COC(=O)N1CCC2(CC1)CN(C(=O)Nc1cccc(F)c1)C2	inactive
COCC(=O)N1CCC2(CCCN(Cc3ccc(C#N)cc3)C2)CC1	inactive
O=C(c1cccc(F)c1)N1CCC2(CC1)CN(c1ncccn1)C2	inactive
CCNc1ncc2nc(-c3cccs3)c(=O)n(CCc3ccccc3)c2n1	active

Exam item: For this compound, state the assay outcome: COCC(=O)N1CCC2(CC1)CCN(c1ccc(-c3ccccc3)cc1)CC2
Marked response: inactive

Exam item: Please indicate how the test categorized COc1ccccc1CN1CCC2(CC1)CCN(C(=O)c1cccn1C)CC2 .
Marked response: inactive

###

max response values, listed per item
# PROTOCOL DESCRIPTION: qHTS Assay for Lipid Storage Modulators (AID 1519)
# COND: Drosophila S3 cells, BODIPY lipid droplet/cell ratio, laser cytometry; measured here: lipid channel max response; cells loaded with oleic acid
Results filed as inconclusive are left out.
Use % as the unit, but write only the number.

>>> print(df.to_string())
                               query_smiles    observable  experimental_value
0  COc1ncc2nc(-c3cn(C)c4ccccc34)c(=O)n(Cc3ccc(F)cc3)c2n1  max response                23.9
1  CC(=O)Nc1c(I)c(C(=O)N[C@H]2[C@@H](O)[C@H](O)[C@H](CO)O[C@@H]2O)c(I)c(N(C)C(C)=O)c1I  max response               -5.12
2  O=C(c1ccncc1)N1CCC2(CC1)CCN(c1ccncc1)CC2  max response               -7.91
3  COCCn1c(=O)c(-c2ccccc2)nc2cnc(N3CCN(C)CC3)nc21  max response                16.1

Now take the following molecule into account.
Exam item: Which max response value is on record for COc1ccc(Oc2ncc3nc(CCc4ccccc4)c(=O)n(C)c3n2)cc1 ?
Marked response: 8.21

###

# Tested on: CP211
# PROTOCOL DESCRIPTION: qHTS profiling for inhibitors of Plasmodium falciparum proliferation (AID 504749); also: nearly all actives have a fitted effect of over 60% in size
# COND: P. falciparum in erythrocytes, SYBR Green DNA, 72 h; series mostly up to 12.8 µM
# Method: NIH National Institute of Allergy and Infectious Diseases [NIAID] NIH Chemical Genomics Center [NCGC] […] Because mature erythrocytes lack DNA, only Plasmodium-derived DNA is detected. NCGC Assay Protocol Summary: The SYBR Green viability assay was adapted from a method described previously (Plouffe et al., 2008). […] The following morning, fluorescence intensity at 485(14) nm excitation and 535(25) nm emission wavelengths was measured on an EnVision (Perkin Elmer) plate reader. […]
Records with an inconclusive call do not appear. Calls of active or inactive are those of the source. The call rests on the fitted dose curve; in most records, active means well fitted inhibition curve with a large enough effect; inconclusive means small, poorly fitted or top-dose-only effect; inactive means flat fitted curve, though single readings scatter.
Response enum: active, inactive

A selection of reference data follows.
MOLECULE	CATEGORY
O=C(c1ccccc1)c1ccc2n1CC[C@H]2C(=O)O	inactive
CC(C)(O/N=C(\C(=O)N[C@@H]1C(=O)N2C(C(=O)[O-])=C(C[n+]3ccccc3)CS[C@@H]12)c1csc(N)n1)C(=O)O	inactive
CCN[C@@H]1C[C@H](C)S(=O)(=O)c2sc(S(N)(=O)=O)cc21	inactive
O=c1[nH]c(=O)n([C@@H]2C[C@H](O)[C@H](CO)O2)cc1I	inactive
COc1c(O)cc2c(c1O)[C@@H]1O[C@@H](CO)[C@@H](O)[C@@H](O)[C@@H]1OC2=O	inactive

Exam item: Which outcome did this test record for the molecule COc1ccccc1OC[C@H](O)COC(N)=O ?
Marked response: inactive

Exam item: Just curious, what result did CCN(CC)CCC[C@H](C)Nc1ccnc2cc(Cl)ccc12 get here?
Marked response: active

Exam item: Outcome logged for CC(=O)O[C@@H](C)C[N+](C)(C)C in this assay:
Marked response: inactive

Exam item: Please state the recorded outcome for this molecule: NC(N)=NC[C@@H]1COC2(CCCCC2)O1
Marked response: inactive

Exam item: Each molecule tested received a call. Report the one for COc1cc(/C=C/C(=O)/C=C(O)/C=C/c2ccc(O)c(OC)c2)ccc1O .
Marked response: inactive

Exam item: I would be grateful if you could indicate the recorded call for COc1ccc(C[C@@H]2c3cc(OC)c(OC)cc3CC[N@+]2(C)CCC(=O)OCCCCCOC(=O)CC[N@@+]2(C)CCc3cc(OC)c(OC)cc3[C@H]2Cc2ccc(OC)c(OC)c2)cc1OC .
Marked response: inactive

###

# PROTOCOL DESCRIPTION: AP1 Signaling Pathway (AID 357);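 also: ME-180 reporter cells stimulated with EGF at its EC50 level; % is scaled to controls: 0 for no effect and ±100 for the full control effect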
# COND: ME-180 (cervical carcinoma) AP-1-bla reporter, EGF-induced, beta-lactamase ratio, 5 h; at 7.69 µM (top of the series) unless noted
# Description: NCGC Assay Overview: Activator protein-1 (AP-1), a transcription factor, plays an important role in tumor genesis by regulating genes involved in cell proliferation, differentiation, apoptosis, and angiogenesis. AP-1 activity is induced by a complex network of signaling pathways that involves extracellular signals, such as growth factors. […] Library compounds were measured for their ability to modulate positively or negatively the action of EC50 EGF on reporter gene activity. […]
Records with an inconclusive call do not appear. Active and inactive are the calls of the source. Calls come from the whole dose curve; as a rule, active = well fitted curve in either direction with a large enough effect (not every such curve was filed as active); inconclusive = small, poorly fitted or top-dose-only effect, or another doubt; inactive = flat fitted curve, though single readings scatter.
OBSERVABLE: activity change, negative = inhibition

Exam item: Any idea what activity change, negative = inhibition was measured for N#Cc1ccccc1-c1ccc2ncnc(NCc3ccccc3)c2c1 ?
Marked response: -20.7% (inactive)

Exam item: What does the record list as activity change, negative = inhibition for COCCn1c(=O)c(-c2cn(C)c3ccccc23)nc2cnc(OCc3ccccc3)nc21 ?
Marked response: -1.93% (inactive)

Exam item: Look up activity change, negative = inhibition: Cn1cccc1C(=O)N1CCC2(CC1)CN(Cc1cc(C(F)(F)F)cc(C(F)(F)F)c1)C2
Marked response: -5.13% (inactive)

Exam item: Please give the measured activity change, negative = inhibition for this compound: COc1ccc(-c2nc3cnc(N(C)C)nc3n(C3CC3)c2=O)cc1
Marked response: -0.159% (inactive)

Exam item: Reported activity change, negative = inhibition for CC(=O)N1CCC[C@@]2(CCN(Cc3ccc(C#N)cc3)C2)C1 : what is it?
Marked response: -11.7% (inactive)

Exam item: Form field: reported activity change, negative = inhibition of COc1ncc2nc(-c3ccc(F)cc3)c(=O)n(CCC#N)c2n1
Marked response: 13.2% (inactive)

Exam item: Dear colleague, I am looking for the recorded activity change, negative = inhibition of the following compound: CC(=O)N1CCC2(CC1)CCN(C(c1ccccc1)c1ccccc1)CC2
Marked response: -6.19% (inactive)

Exam item: activity change, negative = inhibition for COc1ccc(-c2nc3cnc(N4CCN(C)CC4)nc3n(C3CC3)c2=O)cc1 ?
Marked response: -5.97% (inactive)

Exam item: For COC(=O)N1CCC2(CCN(Cc3ccc(C#N)cc3)CC2)CC1 , what is its reported activity change, negative = inhibition?
Marked response: -12.5% (inactive)

Exam item: Param item = CN(C)C(=O)c1ccc(-c2cncnc2NCCN2CCOCC2)cc1 ; retrieve measured activity change, negative = inhibition.
Marked response: -0.958% (inactive)

Exam item: Form field: reported activity change, negative = inhibition of COc1ccc(C(=O)N2CCC[C@@]3(CCN(Cc4nccs4)C3)C2)cc1
Marked response: -5.52% (inactive)

Exam item: Form field: reported activity change, negative = inhibition of COc1ccc(C(=O)N2CCC[C@@]3(CCN(C)C3)C2)cc1
Marked response: 10.5% (inactive)

Exam item: Can you share its activity change, negative = inhibition? I mean this compound: O=c1cnc2cnc(Oc3ccccc3)nc2n1C[C@H]1CCCO1
Marked response: -19.1% (inactive)

Exam item: May I ask what activity change, negative = inhibition has been recorded for CNc1nc(-c2ccoc2)nc2ccccc12 ?
Marked response: 0.93% (inactive)

Exam item: What does the record list as activity change, negative = inhibition for O=C(c1cccc(F)c1)N1CCC2(CCCN(Cc3ccncc3)C2)CC1 ?
Marked response: -4.41% (inactive)

###

# STUDY TARGET: Dual specificity protein kinase CLK4 (Homo sapiens) (UniProt Q9HAZ1)
# Sequence (Q9HAZ1 whole entry, looked up): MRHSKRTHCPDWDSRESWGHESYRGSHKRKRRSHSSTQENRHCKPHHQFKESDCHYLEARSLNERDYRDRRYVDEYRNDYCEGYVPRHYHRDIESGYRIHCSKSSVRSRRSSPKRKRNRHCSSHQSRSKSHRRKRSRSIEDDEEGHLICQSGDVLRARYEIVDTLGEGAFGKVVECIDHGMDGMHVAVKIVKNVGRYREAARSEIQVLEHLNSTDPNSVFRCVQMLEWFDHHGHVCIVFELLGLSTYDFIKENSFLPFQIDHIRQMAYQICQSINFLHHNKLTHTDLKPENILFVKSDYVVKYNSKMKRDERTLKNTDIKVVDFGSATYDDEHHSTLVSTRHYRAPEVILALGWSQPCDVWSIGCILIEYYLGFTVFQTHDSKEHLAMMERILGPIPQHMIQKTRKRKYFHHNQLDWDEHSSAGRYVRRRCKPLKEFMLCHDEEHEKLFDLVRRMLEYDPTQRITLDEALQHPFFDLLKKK
# PROTOCOL DESCRIPTION: qHTS Assay for Inhibitors of CDC-like Kinase 4 (ADP-FP Assay) (AID 1795);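 also: recombinant human CLK4 phosphorylating RS repeat peptide at 1 µM ATP; % is scaled to controls: 0 for no effect and ±100 for the full control effect; nearly all actives have a fitted effect of over 60% in size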
# COND: Transcreener ADP fluorescence polarization; series mostly up to 50 µM
# Experimental: NIH Molecular Libraries Probe Production Centers Network [MLPCN] NIH Chemical Genomics Center [NCGC] MLPCN Grant: 1R03MH084827-01 Assay Submitter (PI): Tom Misteli NCGC Assay Overview: Clk4 (Invitrogen cat # PV3839) was assayed using ATP and the RS repeat peptide (AnaSpec cat # 61722) as substrates using Transcreener (trade mark), a competitive fluorescence polarization (FP) assay. […] The amount of ADP produced can then be calculated using a calibration curve. […]
Records with an inconclusive call do not appear. The source made the active and inactive calls. Calls come from the whole dose curve; as a rule, active = well fitted inhibition curve with a large enough effect; inconclusive = small, poorly fitted or top-dose-only effect; inactive = flat fitted curve, though single readings scatter.
OBSERVABLE: outcome

>>> df
                             query_smiles  experimental_value
0  Cc1ccccc1-c1nc(N(C)Cc2ccco2)c2ccccc2n1            inactive
1         COc1ccccc1-c1nccc(NCc2cccnc2)n1            inactive
2         COc1cccc(-c2cncnc2NCc2cccnc2)c1            inactive
3          c1ccc(CNc2cc(-c3ccoc3)ncn2)cc1            inactive
4           COCCNc1nc(-c2ccoc2)nc2ccccc12            inactive

Exam item: Looking for the measured outcome of O=c1c(-c2ccccc2)nc2cnc(N3CCOCC3)nc2n1Cc1cccs1 , can you help?
Marked response: inactive
